Entries and their CD28 scFv signal
biological target: anti-CD28 scFv (VH - linker 1 - VL) (biotinylated (site not stated)); test: phage ELISA; biotinylated anti-CD28 scFv on neutravidin plate, clonal phage supernatant, anti-M13-HRP;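 also: before the phage were added, wells were pre-incubated with soluble CD28 protein in blocking buffer, or with blocking buffer alone, and were not washed in between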
Sequence (scFv, as listed by the source): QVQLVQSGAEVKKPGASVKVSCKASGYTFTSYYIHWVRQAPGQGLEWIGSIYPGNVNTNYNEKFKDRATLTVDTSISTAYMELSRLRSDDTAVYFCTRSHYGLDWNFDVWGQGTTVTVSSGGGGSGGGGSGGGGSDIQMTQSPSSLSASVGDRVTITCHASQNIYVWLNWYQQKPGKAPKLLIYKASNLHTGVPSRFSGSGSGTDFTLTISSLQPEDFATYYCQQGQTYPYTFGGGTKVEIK
Note: the reply should be a number with no unit written.

BINDER: MDWCPRILWHECFS [Phage-362 clonal phage peptide MDWCPRILWHECFS]
CD28 scFv signal: 1.39
//
BINDER: MDWCPRYLWLECFN [Phage-354 clonal phage peptide MDWCPRYLWLECFN]
CD28 scFv signal: 1.69

Item: MDWCPRLLWHECFN [Phage-357 clonal phage peptide MDWCPRLLWHECFN] | CD28 scFv signal: 1.6

Item: MDWCPRHLWHACFS [Phage-346 clonal phage peptide MDWCPRHLWHACFS] | CD28 scFv signal: 1.83

Item: MDWCPRFLWNECFY [Phage-338 clonal phage peptide MDWCPRFLWNECFY] | CD28 scFv signal: 2

Item: MDWCPKPLWHVCFA [Phage-337 clonal phage peptide MDWCPKPLWHVCFA] | CD28 scFv signal: 2.02

Item: MDWCPRPLWHECFA [Phage-359 clonal phage peptide MDWCPRPLWHECFA] | CD28 scFv signal: 1.44

Item: MHWCPRHLWSECFN [Phage-361 clonal phage peptide MHWCPRHLWSECFN] | CD28 scFv signal: 1.43

Item: MDWCPWFLWNECFN [Phage-350 clonal phage peptide MDWCPWFLWNECFN] | CD28 scFv signal: 1.77

Item: MDFCPRFLWHECFN [Phage-345 clonal phage peptide MDFCPRFLWHECFN] | CD28 scFv signal: 1.91

Item: MAWCPWYLWDECFN [Phage-348 clonal phage peptide MAWCPWYLWDECFN] | CD28 scFv signal: 1.81

Item: MDWCPIHLWYECFN [Phage-352 clonal phage peptide MDWCPIHLWYECFN] | CD28 scFv signal: 1.73

Item: MDWCPRDLWTQCFF [Phage-343 clonal phage peptide MDWCPRDLWTQCFF] | CD28 scFv signal: 1.93

Item: MDWCPMYLWDECFF [Phage-356 clonal phage peptide MDWCPMYLWDECFF] | CD28 scFv signal: 1.65

Item: MDWCPMNLWHECFA [Phage-351 clonal phage peptide MDWCPMNLWHECFA] | CD28 scFv signal: 1.74

Item: IDWCPLHLWHECYH [Phage-353 clonal phage peptide IDWCPLHLWHECYH] | CD28 scFv signal: 1.69
